- Tested on: Saccharomyces cerevisiae;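 also: PSI is a weighted mean of sequencing reads over stability bins, variants kept only with over 10 reads, mCherry proximal and sfGFP distal, peptide attached via GGGS linker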
- Protocol Details: protein stability index of tFT-peptide fusion (C-terminal peptide) (PSI (0-1 scale)); higher = more stable (slower turnover)
- Experimental Context: genetic background: das1 deletion; temperature: 30 C
Experimental Endpoint: protein stability index
Enter the number alone.

Fill in the recorded protein stability index for this sequence, with Saccharomyces cerevisiae as test system: AGVRCPLFWLVC
0.498

Fill in the recorded protein stability index for this sequence, with Saccharomyces cerevisiae as test system: GGGVGVVWVRLG
0.618

Fill in the recorded protein stability index for this sequence, with Saccharomyces cerevisiae as test system: VYVRYYVRVVVI
0.0781

Fill in the recorded protein stability index for this sequence, with Saccharomyces cerevisiae as test system: LYLCLVSPVVVL
0.226

Fill in the recorded protein stability index for this sequence, with Saccharomyces cerevisiae as test system: PYPPTSLPPTWQ
0.652

Fill in the recorded protein stability index for this sequence, with Saccharomyces cerevisiae as test system: YFFFPILCFCFF
0.38

Fill in the recorded protein stability index for this sequence, with Saccharomyces cerevisiae as test system: RVVITYLVLSNR
0.509

Fill in the recorded protein stability index for this sequence, with Saccharomyces cerevisiae as test system: SSVFRLKGLMFL
0.65

Fill in the recorded protein stability index for this sequence, with Saccharomyces cerevisiae as test system: VSVFSLFLFLRV
0.357

Fill in the recorded protein stability index for this sequence, with Saccharomyces cerevisiae as test system: VIQNKKKNKITS
0.642

Fill in the recorded protein stability index for this sequence, with Saccharomyces cerevisiae as test system: HSRALLPYLSYH
0.651

Fill in the recorded protein stability index for this sequence, with Saccharomyces cerevisiae as test system: GFRVTTCASWIC
0.612

Fill in the recorded protein stability index for this sequence, with Saccharomyces cerevisiae as test system: WFSVRQLVFVSG
0.163

Fill in the recorded protein stability index for this sequence, with Saccharomyces cerevisiae as test system: SQSNQSIIRKNV
0.63

Fill in the recorded protein stability index for this sequence, with Saccharomyces cerevisiae as test system: ECLRLTTKKKIN
0.657

Fill in the recorded protein stability index for this sequence, with Saccharomyces cerevisiae as test system: PKRNNRKAQQIS
0.689

Fill in the recorded protein stability index for this sequence, with Saccharomyces cerevisiae as test system: FFLVLWSSLLSP
0.378

Fill in the recorded protein stability index for this sequence, with Saccharomyces cerevisiae as test system: DRRYIISLIYIL
0.369

Fill in the recorded protein stability index for this sequence, with Saccharomyces cerevisiae as test system: LSTPPLLPTPPS
0.664

Fill in the recorded protein stability index for this sequence, with Saccharomyces cerevisiae as test system: FFSPFFFFLFRL
0.366

Fill in the recorded protein stability index for this sequence, with Saccharomyces cerevisiae as test system: PPPPPPPFLFFL
0.643

Fill in the recorded protein stability index for this sequence, with Saccharomyces cerevisiae as test system: VLARGFHCMYFC
0.621

Fill in the recorded protein stability index for this sequence, with Saccharomyces cerevisiae as test system: FSFLLYASLVTH
0.307

Fill in the recorded protein stability index for this sequence, with Saccharomyces cerevisiae as test system: EVGFHRRWVALS
0.65

Fill in the recorded protein stability index for this sequence, with Saccharomyces cerevisiae as test system: NECLSSKWLRIC
0.631

Fill in the recorded protein stability index for this sequence, with Saccharomyces cerevisiae as test system: VFLDCCLRVFVD
0.228

Fill in the recorded protein stability index for this sequence, with Saccharomyces cerevisiae as test system: FFLDRLVIRLIA
0.248

Fill in the recorded protein stability index for this sequence, with Saccharomyces cerevisiae as test system: FAFPTPPPLLFD
0.693

Fill in the recorded protein stability index for this sequence, with Saccharomyces cerevisiae as test system: RLFLLIECSSGF
0.31

Fill in the recorded protein stability index for this sequence, with Saccharomyces cerevisiae as test system: CSYPTLSMYSTT
0.655

Fill in the recorded protein stability index for this sequence, with Saccharomyces cerevisiae as test system: LFAIFLVVLLFR
0.195

Fill in the recorded protein stability index for this sequence, with Saccharomyces cerevisiae as test system: SVVYSVWIYLLH
0.292

Fill in the recorded protein stability index for this sequence, with Saccharomyces cerevisiae as test system: LFSTRRWISVCA
0.134

Fill in the recorded protein stability index for this sequence, with Saccharomyces cerevisiae as test system: CLFLNCRFYMFL
0.808

Fill in the recorded protein stability index for this sequence, with Saccharomyces cerevisiae as test system: GRLDHWNKHKYI
0.64

Fill in the recorded protein stability index for this sequence, with Saccharomyces cerevisiae as test system: LFFWVLTVMFVW
0.224

Fill in the recorded protein stability index for this sequence, with Saccharomyces cerevisiae as test system: VSVVLKTQRVVC
0.432

Fill in the recorded protein stability index for this sequence, with Saccharomyces cerevisiae as test system: TSPYTSFAHTSL
0.677

Fill in the recorded protein stability index for this sequence, with Saccharomyces cerevisiae as test system: RKQLSCIMIWCK
0.204

Fill in the recorded protein stability index for this sequence, with Saccharomyces cerevisiae as test system: LFLSFLLFVLAF
0.319

Fill in the recorded protein stability index for this sequence, with Saccharomyces cerevisiae as test system: GVVCVLGFALFV
0.293

Fill in the recorded protein stability index for this sequence, with Saccharomyces cerevisiae as test system: FSGFPLTLSPPL
0.67

Fill in the recorded protein stability index for this sequence, with Saccharomyces cerevisiae as test system: WVFVVWFVFVVG
0.241

Fill in the recorded protein stability index for this sequence, with Saccharomyces cerevisiae as test system: FFSLRRAVTVSA
0.212

Fill in the recorded protein stability index for this sequence, with Saccharomyces cerevisiae as test system: KYQVIILQTRKI
0.634

Fill in the recorded protein stability index for this sequence, with Saccharomyces cerevisiae as test system: RGSLYLILVLIG
0.215

Fill in the recorded protein stability index for this sequence, with Saccharomyces cerevisiae as test system: FRFSCLFSLFLS
0.478

Fill in the recorded protein stability index for this sequence, with Saccharomyces cerevisiae as test system: LPLLLFYLPIIW
0.401

Fill in the recorded protein stability index for this sequence, with Saccharomyces cerevisiae as test system: SVVFFYPPIFHA
0.678

Fill in the recorded protein stability index for this sequence, with Saccharomyces cerevisiae as test system: CSVPLGVFAIVV
0.382

Fill in the recorded protein stability index for this sequence, with Saccharomyces cerevisiae as test system: LFYVSFLFMLLF
0.363

Fill in the recorded protein stability index for this sequence, with Saccharomyces cerevisiae as test system: FFLFFLSFGCFL
0.421

Fill in the recorded protein stability index for this sequence, with Saccharomyces cerevisiae as test system: LPHPLPFCFSLY
0.672

Fill in the recorded protein stability index for this sequence, with Saccharomyces cerevisiae as test system: PWFCYVQLVVPV
0.232

Fill in the recorded protein stability index for this sequence, with Saccharomyces cerevisiae as test system: RFFVLSFFFLVS
0.224

FYI, the data here is from the supplement of paper PMC10724198.
